// data source = the supplement of paper PMC9170038

Each item that follows carries a reported apparent KD of K4 kissing-loop reporter.
tested on: K4 kissing-loop RNA reporter; test: apparent KD of K4 kissing-loop reporter; higher = weaker reporter binding; conditions: Eterna round: R107; input ligand: none;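 note: bound reporter read as fluorescence of individual clusters on recovered sequencing chips by microscopy, with normalized cluster intensities fitted with a binding model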
Readout Name: apparent KD of K4 kissing-loop reporter (µM)

Input Sequence: GACAACAGGGUGAGACUCACGGCGCCAGAAGGAGCGGUGAUUCCACCAGGUAGGUCGCUGGCCCAGUGAUGUUGGGCUUUGUGUC [Onoran]
Result Number: 0.138
//
Input Sequence: UUAGUCUAGAGAGGAUAUCAGUGAUGUUGAUAUCAAGAUCUGAGAUAGAAUUCUAUCUCAGAUCAAUGAGAAGGCUCUAGACAUU [AK1.2 Exc FMN B]
Result Number: 0.168
//
Input Sequence: CCCUAUAUAUGCAGUGAUGUUGCAACUGAUACCAGUAUCGAAAGAUACCCUUGGCAGCGGAAAACCGCUACGUAAUUUAAUAGGG [Ex Theophylline A K4 21]
Result Number: 0.419
//
Input Sequence: UGAUUGGCGAAAGUAGUGAUGUUACGAAUAUAGGAUAUUAGAGGAAUAAGAAGGAUAAAGGAGAAAUAGGUAAAUUGUUGGUUGG [whbob_SS_FMNA__2th169]
Result Number: 0.104
//
Input Sequence: UAAAUCACACGAGAUACCAGCCAAACCGAACUUGAGCACUAUAGUGAUGUUAUAUUGCGAGGCCCUUGGCAGCUCAAUAGAACAA [theeternabot_sameState_KL_Theo_B_11]
Result Number: 0.19
//
Input Sequence: AUUUUUUACAGAAGGAGCGUGUUAUAAUAAUCAUAUUGCUUAGCGAGUGAUGUUCGCUUUACACAGGUAGGUCGCUGUUUAUUUA [JR_Nu_ExcArginiB_Sub029]
Result Number: 0.176
//
Input Sequence: GCAAGGCUACAAGGAUAUGCGCGAACCUACCGCCAAGCGGCUACCGGUGAGUCAGUGAUGUUGGCUGCAGAAGGUGUGAUUGAGC [theeternabot_sameState_KL_FMN_B_45]
Result Number: 0.365
//
Input Sequence: AUAUUACUAUACGAUACCAGCCCUAACACUAGUGACGCGGUAAUAGUGAUGUUGUAACCCGGCCCUUGGCAGCGUAAUCAUGGAA [theeternabot_sameState_KL_Theo_B_7]
Result Number: 0.519
//
Input Sequence: AAUAAUGGAGUGAUGUUCCAGUAAUGGGAUACCAGACAUGAAAAUGUCCCUUGGCAGCUCAAAGGUCUAGUGAUGUUAUAAAGAA [KL-SSTheo-A6]
Result Number: 0.554
//
Input Sequence: UGACUGGAUGGAAGGAGCGCUAAACUCCUAGUGAUGUUAGGGACAUGAGGCAUAGCCUUGAAGCAGGUAGGUCGCCAUCUAGUCU [FiskerMod 29 - Jieux - Same State - Arginine B]
Result Number: 0.184
//
Input Sequence: GGGUCAGCGCGAAGGAGCGCCCUGACAGGUUGCUGCCGUGGGCAGUGAUGUUGCUCAGUCCGGCAGGUAGGUCGCGUGCUGACCC
Result Number: 0.183
//
Input Sequence: ACUGAGCAUGCGGCCGCCACUUCAGAACGUCGCCCAAAGGGCGACGCCUCCACAGUGAUGUUGUGGAGGACCGGGCAUGUUCAGA [Omei KL Tryp B Exc A v2]
Result Number: 0.136
